All values here come from patent US9637483B2.

ASSAYED TARGET: JAK2 (Homo sapiens, UniProt O60674)
Construct: purchased Invitrogen
Sequence (O60674 whole entry): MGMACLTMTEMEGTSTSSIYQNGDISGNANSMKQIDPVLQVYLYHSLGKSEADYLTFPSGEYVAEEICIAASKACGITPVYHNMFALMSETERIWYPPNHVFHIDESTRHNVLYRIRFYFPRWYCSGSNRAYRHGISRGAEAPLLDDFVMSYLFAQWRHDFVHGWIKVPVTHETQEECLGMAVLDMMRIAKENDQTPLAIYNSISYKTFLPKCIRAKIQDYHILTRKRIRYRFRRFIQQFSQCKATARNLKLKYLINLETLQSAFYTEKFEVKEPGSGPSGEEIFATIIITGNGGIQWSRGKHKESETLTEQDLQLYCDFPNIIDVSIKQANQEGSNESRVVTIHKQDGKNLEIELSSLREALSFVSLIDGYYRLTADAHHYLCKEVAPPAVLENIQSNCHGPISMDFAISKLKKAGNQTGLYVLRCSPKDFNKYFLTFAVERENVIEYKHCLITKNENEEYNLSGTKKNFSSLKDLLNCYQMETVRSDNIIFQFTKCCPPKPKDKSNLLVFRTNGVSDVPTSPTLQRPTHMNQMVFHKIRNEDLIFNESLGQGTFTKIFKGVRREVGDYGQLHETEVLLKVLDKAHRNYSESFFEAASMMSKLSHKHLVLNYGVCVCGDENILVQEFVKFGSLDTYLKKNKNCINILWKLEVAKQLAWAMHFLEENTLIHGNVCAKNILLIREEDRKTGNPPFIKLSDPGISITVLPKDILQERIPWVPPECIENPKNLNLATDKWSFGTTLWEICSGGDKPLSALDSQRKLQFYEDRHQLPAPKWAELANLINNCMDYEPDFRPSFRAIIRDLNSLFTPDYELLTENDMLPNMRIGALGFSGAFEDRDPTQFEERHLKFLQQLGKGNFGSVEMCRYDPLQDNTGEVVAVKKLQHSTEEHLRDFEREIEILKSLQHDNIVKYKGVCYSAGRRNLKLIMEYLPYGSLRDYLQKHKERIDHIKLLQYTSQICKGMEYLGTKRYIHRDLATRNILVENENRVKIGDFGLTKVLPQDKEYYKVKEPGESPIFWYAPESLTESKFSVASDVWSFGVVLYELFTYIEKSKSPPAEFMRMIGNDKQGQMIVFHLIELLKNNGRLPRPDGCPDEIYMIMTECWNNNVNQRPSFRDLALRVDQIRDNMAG
EXPERIMENTAL DETAILS: JAK2 enzyme inhibition test (LANCE method)
Format: biochemical
MEASUREMENT PARAMETERS: 1 μM test compound; read-out: JAK2 enzyme inhibitory activity (%, 1 μM)
Procedure: JAK2 enzyme inhibitory activity of test compounds was measured by the LANCE method (PerkinElmer). First, a test compound diluted with assay buffer (50 mM HEPES (pH 7.5), 10 mM MgCl2, 1 mM EGTA, 2 mM DTT, 0.01% Tween20, 0.01% BSA) was added to a 384-well plate by 2 μL each. Then, a JAK2 (Invitrogen) solution and a fluorescence-labeled peptide substrate (ULight-JAK1, PerkinElmer) solution diluted with assay buffer to 6 ng/mL and 300 nM, respectively, were added by 2 μL each. […]
ENDPOINT LABEL: inhibition at 1 µM (%)

>  <COMPOUND>
Cn1nc(-c2cn(-c3c(F)cccc3C#N)c(=O)c3c(N)n[nH]c23)cc1C(C)(C)O [Example 71]

>  <inhibition at 1 µM / %>
97

$$$$
>  <COMPOUND>
Cn1nc(-c2cn(C(C3CC3)C3CC3)c(=O)c3c(N)n[nH]c23)cc1C1CC1 [Example 161]

>  <inhibition at 1 µM / %>
99

$$$$
>  <COMPOUND>
Cn1nc(-c2cn(C(C3CC3)C3CC3)c(=O)c3c(N)n[nH]c23)cc1C1=CCCCC1 [Example 147]

>  <inhibition at 1 µM / %>
101

$$$$
>  <COMPOUND>
CC(C)[C@H](C)n1cc(-c2cc(N3CC[C@@H](O)C3)n(C)n2)c2[nH]nc(N)c2c1=O [Example 21]

>  <inhibition at 1 µM / %>
98

$$$$
